Origin of values: patent US20020192161A1

# assay.remarks: Bioavailability of oral ibuprofen formulations in vagal-suppressed (propantheline-treated, Pain Model) rats
# Format: in vivo
# assay.conditions: male, Sprague-Dawley, rat, plasma, 20 mg/kg
readout.name: Tmax (min)
Answer with a number only, understood to be in min.

Prompt: Which Tmax value belongs to CC(C)Cc1ccc(C(C)C(=O)O)cc1 (racemic) [ibuprofen, (±)-2-(4-Isobutylphenyl)propionic acid] ?
Response: 45

---

# assay.remarks: Bioavailability of oral ibuprofen crushed tablets in control rats
# Assay type: in vivo, Sprague-Dawley rats
# assay.conditions: male, Sprague-Dawley, rat, plasma, po, 20 mg/kg
readout.name: Cmax

Prompt: Which Cmax value belongs to CC(C)Cc1ccc(C(C)C(=O)O)cc1 (racemic) [ibuprofen, (±)-2-(4-Isobutylphenyl)propionic acid] ?
Response: 40400 ng/mL
